All values here come from patent US20220056087A1.

Known Kd of a selection of binders
- MEASURED_TARGET: T1, G001 (native IgG1 Fc) (human, UniProt P01857-1 99-330 = IgG part)
- T1 construct: domain: Fc; also called IgG1 Fc control; homodimeric monomer of IgG1 Fc
- ASSAY_REMARKS: BLI (Octet 96 Red), receptor on sensor, G001 in solution
- Description: For binding analysis of mouse protein, His-tagged mouse FcγRII (R&D system cat #1460-CD) and FcγRIII R&D system cat #1960) were separately loaded on anti-penta-His Biosensors (ForteBio cat #18-5077) at 10 ug/ml in 1× kinetic analysis buffer (ForteBio cat #18-5032). […]
Respond with the bare value in nM.

{"BINDER": "His-tagged mouse FcγRII (R&D system cat #1460-CD) (receptor, UniProt P08101 30-207, looked up, Bought protein; also called Mouse FcγRIIb; Mouse FcyRII) THDLPKAVVKLEPPWIQVLKEDTVTLTCEGTHNPGNSSTQWFHNGRSIRSQVQASYTFKATVNDSGEYRCQMEQTRLSDPVDLGVISDWLLLQTPQLVFLEGETITLRCHSWRNKLLNRISFFHNEKSVRYHHYSSNFSIPKANHSHSGDYYCKGSLGRTLHQSKPVTITVQGPKSSR", "Kd (nM)": 1510}
{"BINDER": "Cynomolgus FcγRIIb (receptor) TPAAPPKAVLKLEPPWINVLREDSVTLTCGGAHSPDSDSTQWFHNGNLIPTHTQPSYRFKANNNDSGEYRCQTGRTSLSDPVHLTVLSEWLALQTPHLEFREGETIMLRCHSWKDKPLIKVTFFQNGKSKKFSHMDPNFSIPQANHSHSGDYHCTGNIGYTPYSSKPVTITVQVP", "Kd (nM)": 2040}
{"BINDER": "His-tagged human FcγRIIb (R&D system cat #1875-CD) (receptor, UniProt P31994 46-217, looked up, Bought protein) APPKAVLKLEPQWINVLQEDSVTLTCRGTHSPESDSIQWFHNGNLIPTHTQPSYRFKANNNDSGEYTCQTGQTSLSDPVHLTVLSEWLVLQTPHLEFQEGETIVLRCHSWKDKPLVKVTFFQNGKSKKFSRSDPNFSIPQANHSHSGDYHCTGNIGYTLYSSKPVTITVQAP", "Kd (nM)": 1310}

Could you now consider this next binder?
Request: Kd for His-tagged mouse FcγRIII (R&D system cat #1960) (receptor, UniProt P08508 31-215, looked up, Bought protein; also called Mouse FcyRIII) ALPKAVVKLDPPWIQVLKEDMVTLMCEGTHNPGNSSTQWFHNGRSIRSQVQASYTFKATVNDSGEYRCQMEQTRLSDPVDLGVISDWLLLQTPQRVFLEGETITLRCHSWRNKLLNRISFFHNEKSVRYHHYKSNFSIPKANHSHSGDYYCKGSLGSTQHQSKPVTITVQDPATTSSISLVWYHT ?
Response: 4180
